Tested on: HOP-92 NSCLC
testSummary: NCI-60 one-dose screen, 48 h
runConditions: 10 µM
About 83,000 compounds went through this panel and 20% of them were active in at least one assay; those are over-represented in the sample as a whole. Calls of active or inactive are those of the source. Rule for the calls: active = growth percent below 10; inactive = the rest.
Form entry, call: pick from active, inactive

Recorded results for 2 molecules are shown here.
C=C(C)[C@@H]1CC[C@]2(COP(=O)(OCC)OCC)CC[C@]3(C)[C@H](CC[C@@H]4[C@@]5(C)CCCNC(C)(C)[C@@H]5CC[C@]43C)[C@@H]12 ... inactive
COc1ccccc1C(=O)Nc1cccc2c1C(=O)C(=O)C=C2 ... inactive

Q. Which outcome was entered for the molecule `Oc1ccc(CSc2nnc(-c3ccc(Cl)cc3)n2-c2ccccc2)c2cccnc12` in this test?
A. inactive

Q. Lab log entry: `CC1(C)[C@@H](O)CC[C@]2(C)[C@H]3CC[C@@H]4[C@H]5[C@H](C(=O)/C=C\c6ccccn6)CC[C@]5(O)CC[C@@]4(C)[C@]3(C)CC[C@@H]12` — outcome as called in the assay?
A. inactive

Q. In this assay, the call recorded for CCCC(=O)NC(c1cccnc1)c1cc(C(C)(C)C)c2cccnc2c1O (stereo not given) was what?
A. inactive

Q. Hi, do you know how `O=C(O)c1ccc(-n2cc(CNc3cc(F)c(F)c(F)c3)c(-c3cccc(F)c3)n2)cc1` came out in this test?
A. inactive

Q. For `CCCCCCCn1cc2c(N[C@H](C)c3ccccc3)ncnc2n1` , which call appears in the assay record?
A. inactive

Q. Query: recorded result category for `CN1CCN(Cc2ccc(NC(=O)c3cncc(C#Cc4cnc5ccc(OCC(C)(C)O)nn45)c3)cc2C(F)(F)F)CC1` in this test
A. active

Q. Recorded call for `CC1(C)[C@@H](O)CC[C@]2(C)[C@H]3CC[C@@H]4[C@H]5[C@H](C(=O)/C=C\c6ccncc6)CC[C@]5(O)CC[C@@]4(C)[C@]3(C)CC[C@@H]12` ?
A. inactive

Cited source for all entries: PubChem BioAssay (NCI)
